readout.name: IC50 (nM)
The response must be a number in nM with no trailing unit.

Q: Recall the recorded IC50 for N#Cc1ccc(OCC2CC(=O)N(C3CCCCCC3)C2)nc1 (stereo unspecified) with 11-beta-hydroxysteroid dehydrogenase 1 (Mus musculus) and state it.
Sequence (P50172 whole entry): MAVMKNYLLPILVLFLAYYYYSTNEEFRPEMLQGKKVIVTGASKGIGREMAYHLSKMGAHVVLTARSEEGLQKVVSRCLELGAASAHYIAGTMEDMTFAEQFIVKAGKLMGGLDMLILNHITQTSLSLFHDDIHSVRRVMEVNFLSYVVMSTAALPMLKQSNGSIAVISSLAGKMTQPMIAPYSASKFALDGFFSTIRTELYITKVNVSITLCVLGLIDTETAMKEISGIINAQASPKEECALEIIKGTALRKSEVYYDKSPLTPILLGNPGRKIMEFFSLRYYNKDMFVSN
Result: 10000

Q: Identify the measured IC50 of `C[C@H]1C(=O)N(C2CCCCCC2)C[C@@H]1COc1ccc(C#N)cn1` for 11-beta-hydroxysteroid dehydrogenase 1 (Mus musculus).
Result: 75

Q: Please tell me: IC50 of CC1(C)C(=O)N([C@H]2C3CC4CC2C[C@](C(N)=O)(C4)C3)CC1COc1ccc(-n2cncn2)cc1 (stereo partly specified) , system 11-beta-hydroxysteroid dehydrogenase 1 (Mus musculus)?
Result: 32

Q: Request - read-out IC50 | tested on 11-beta-hydroxysteroid dehydrogenase 1 (Mus musculus) | compound CC1(C)C(=O)N(C23CCC(C(N)=O)(CC2)CC3)CC1COc1ccc(C#N)cn1 (stereo unspecified)
Result: 10

Q: What value of IC50 on 11-beta-hydroxysteroid dehydrogenase 1 (Mus musculus) does CC1(C)C(=O)N([C@H]2C3CC4CC2C[C@](c2nnn[nH]2)(C4)C3)CC1COc1ccc(C(F)(F)F)cn1 (stereo partly specified) have?
Result: 430

Q: Request: IC50, test system 11-beta-hydroxysteroid dehydrogenase 1 (Mus musculus), entry CC1(C)C(=O)N([C@H]2C3CC4CC2C[C@](C(N)=O)(C4)C3)CC1COc1ccc(-n2ccnc2)cc1 (stereo partly specified)
Result: 41
